- Tested Target: Progesterone receptor (Homo sapiens)
- Sequence (whole entry): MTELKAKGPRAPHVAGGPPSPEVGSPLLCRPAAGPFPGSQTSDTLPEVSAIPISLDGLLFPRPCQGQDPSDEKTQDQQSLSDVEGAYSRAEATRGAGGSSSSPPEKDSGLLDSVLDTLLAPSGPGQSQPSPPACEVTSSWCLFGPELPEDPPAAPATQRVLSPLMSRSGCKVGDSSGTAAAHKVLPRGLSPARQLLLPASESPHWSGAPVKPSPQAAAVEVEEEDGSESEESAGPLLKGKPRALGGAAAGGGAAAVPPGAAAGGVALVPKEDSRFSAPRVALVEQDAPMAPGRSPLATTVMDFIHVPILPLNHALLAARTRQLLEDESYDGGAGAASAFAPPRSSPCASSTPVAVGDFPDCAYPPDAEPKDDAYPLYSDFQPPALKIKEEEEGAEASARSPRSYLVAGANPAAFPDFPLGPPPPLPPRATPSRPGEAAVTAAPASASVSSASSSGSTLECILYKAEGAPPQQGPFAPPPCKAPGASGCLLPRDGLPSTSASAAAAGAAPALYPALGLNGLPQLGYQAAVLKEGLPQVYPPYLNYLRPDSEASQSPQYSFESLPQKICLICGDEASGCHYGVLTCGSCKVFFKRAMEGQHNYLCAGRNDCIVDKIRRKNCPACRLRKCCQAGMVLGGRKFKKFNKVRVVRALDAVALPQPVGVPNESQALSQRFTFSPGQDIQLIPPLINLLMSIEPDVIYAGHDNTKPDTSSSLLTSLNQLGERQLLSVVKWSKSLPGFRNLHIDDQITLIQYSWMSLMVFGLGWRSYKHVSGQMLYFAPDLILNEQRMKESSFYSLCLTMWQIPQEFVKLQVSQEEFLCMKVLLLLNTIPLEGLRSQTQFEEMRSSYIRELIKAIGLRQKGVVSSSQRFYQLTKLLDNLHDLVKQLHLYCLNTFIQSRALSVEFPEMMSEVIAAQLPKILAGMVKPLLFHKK
- Protocol Conditions: CV-1
The entries below come with measured Max inhibition values attached.
Metric: Max inhibition

> print(dat)
                                    molecule                         tested.target          metric  test.result
 1  C=C1C=C(C)CC(C)(C)C1C/C=C/c1cc(OC)c(Br)cc1O (stereo not drawn)  Progesterone receptor (Homo sapiens)  Max inhibition          61%
 2   C=C1CCC[C@H](C)[C@H]1Cc1cc(OC)c(Br)cc1O  Progesterone receptor (Homo sapiens)  Max inhibition          93%
 3  C=C1CCC[C@@H](C)[C@@H]1Cc1cc(OC)c(Br)cc1O  Progesterone receptor (Homo sapiens)  Max inhibition          62%
 4  C=C1CCCC(C)(C)C1Cc1cc(OC)c(Br)cc1O (stereo not drawn)  Progesterone receptor (Homo sapiens)  Max inhibition          55%
 5  C=C1[C@H](O)CCC(C)(C)[C@@H]1Cc1cc(OC)c(Br)cc1O  Progesterone receptor (Homo sapiens)  Max inhibition          73%
 6  C=C1CC[C@@H](Br)C(C)(C)[C@H]1Cc1cc(OC)c(Br)cc1O  Progesterone receptor (Homo sapiens)  Max inhibition          83%
 7  C=C1C=C(C)CC(C)(C)C1Cc1ccc([N+](=O)[O-])c(C)c1 (stereo not drawn)  Progesterone receptor (Homo sapiens)  Max inhibition          85%
 8  C=C1C=C(C)CC(C)(C)C1(O)Cc1ccc([N+](=O)[O-])cc1 (stereo not drawn)  Progesterone receptor (Homo sapiens)  Max inhibition          87%
 9  CCOC1=CC(=O)C(Cc2ccc([N+](=O)[O-])cc2)C(C)(C)C1 (stereo not drawn)  Progesterone receptor (Homo sapiens)  Max inhibition          93%
10  C=C1C=C(C)CC(C)(C)C1Sc1ccc([N+](=O)[O-])cc1 (stereo not drawn)  Progesterone receptor (Homo sapiens)  Max inhibition          44%
11  C=C1C[C@H](C)C[C@@H](C)[C@@H]1Cc1cc(OC)c(Br)cc1O  Progesterone receptor (Homo sapiens)  Max inhibition          63%
12  COc1cc(CC2C(C)(C)CC(C)=CC23CC3)c(OC(C)=O)cc1Br (stereo not drawn)  Progesterone receptor (Homo sapiens)  Max inhibition          26%
13    C=C1CCCC(C)(C)[C@H]1Cc1cc(OC)c(Br)cc1O  Progesterone receptor (Homo sapiens)  Max inhibition          94%
14  C=C1CCC(C)(C)C1Cc1cc(OC)c(Br)cc1O (stereo not drawn)  Progesterone receptor (Homo sapiens)  Max inhibition          98%
15  C=C1[C@@H](Cc2cc(OC)c(Br)cc2O)C(C)(C)CC[C@@]1(C)O  Progesterone receptor (Homo sapiens)  Max inhibition          78%
16  C=C1C=CCC(C)(C)C1Cc1cc(OC)c(Br)cc1O (stereo not drawn)  Progesterone receptor (Homo sapiens)  Max inhibition          71%
17  C=C1C=C(C)CC(C)(C)C1Cc1ccc([N+](=O)[O-])cc1 (stereo not drawn)  Progesterone receptor (Homo sapiens)  Max inhibition          90%
18  C=C1C=C(C)CC(C)(C)C1Cc1cc(OC)c(Br)cc1OC(C)=O (stereo not drawn)  Progesterone receptor (Homo sapiens)  Max inhibition          42%
19  C=C1CC[C@@H](Br)C(C)(C)[C@@H]1Cc1cc(OC)c(Br)cc1O  Progesterone receptor (Homo sapiens)  Max inhibition        < 20%
20   C=C1CCCC(C)(C)[C@@H]1Cc1cc(OC)c(Br)cc1O  Progesterone receptor (Homo sapiens)  Max inhibition          45%
21  C=C1C=C(C)C[C@@H](C)[C@@H]1Cc1cc(OC)c(Br)cc1OC(C)=O  Progesterone receptor (Homo sapiens)  Max inhibition          52%
22  C=C1C=C(C)C(Cc2cc(OC)c(Br)cc2O)C(C)(C)C1 (stereo not drawn)  Progesterone receptor (Homo sapiens)  Max inhibition          66%
23  C=C1C=C(C)CC(C)(C)C1Cc1cc(OC)c(Br)cc1O (stereo not drawn)  Progesterone receptor (Homo sapiens)  Max inhibition          37%

Where these numbers come from: ChEMBL document CHEMBL1129561
